Each entry below lists one item and its recorded growth inhibition value.
Procedure details: NCI Yeast Anticancer Drug Screen. Data for the mlh1 strain (AID 171);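 note: 0% = growth of vehicle-treated control cultures of the same strain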
Measurement parameters: S. cerevisiae mlh1 strain growth inhibition; at 33.0 µM; active compounds read high
This is part of a sample that, as a whole, favours compounds with a hit. Of some 79,000 tested, about 15% had one in any assay. Active and inactive are the calls of the source. Cut-off read from the data, not from the text of the source: active = growth inhibition above about 70%; inactive = the rest.

Example compounds with recorded growth inhibition:
| Compound | growth inhibition |
| --- | --- |
| CCCNC(=O)OCc1c(COC(=O)NCCC)c(-c2ccc(Cl)c(Cl)c2)n2c1CCC2 | 26% (inactive) |
| CC(C)=CCC/C(C)=C/CN1C(=O)C=CC1=O | 99% (active) |
| c1ccc2c(c1)ccn2CCc1c[nH]c2ccccc12 | 15% (inactive) |

Need growth inhibition, item `O=c1c2ccccc2nc(-c2ccc(Cl)cc2)n1O`
92% (active)

Need growth inhibition, item `N#[N+]c1c([O-])c2ccccc2c2ccccc12`
65% (inactive)

Need growth inhibition, item `Cc1ccccc1NC(=O)c1c(C)oc2c1C(=O)c1ccccc1C2=O`
-5% (inactive)

Need growth inhibition, item `CCCCCCCCCCCNC=O`
69% (inactive)

Need growth inhibition, item `O=[N+]([O-])c1cn[n+]([O-])c2ccccc12`
95% (active)

Need growth inhibition, item `COc1cc([N+](=O)[O-])c2ncccc2c1Br`
-3% (inactive)

Need growth inhibition, item C/C(=N\OCC(O)CNCCSCc1ccccc1)c1ccccc1Cl (stereo unspecified)
71% (active)

Need growth inhibition, item `Cc1cc2nc3ccccc3n2c2ccccc12`
53% (inactive)

Need growth inhibition, item `C/C(=N\Sc1ccccc1)c1ccccc1O`
13% (inactive)

Need growth inhibition, item `CC(C)(Br)C(=O)/C=C/c1ccccc1`
15% (inactive)

Need growth inhibition, item CCCCCCCCCCCCCCCCCCN(C)C(COC)COP(=O)([O-])OCC[N+](C)(C)C (stereo unspecified)
98% (active)

Need growth inhibition, item `O=C(C#Cc1ccccc1)/C=C/c1ccccc1`
49% (inactive)

Need growth inhibition, item `COC(=O)C(=O)CC(=O)c1cccc(OC)c1`
39% (inactive)

Need growth inhibition, item `O=C1C(=O)c2cccc([N+](=O)[O-])c2-c2ccccc21`
99% (active)

Need growth inhibition, item `O=C1c2cccc3cccc(c23)C(=O)N1O`
57% (inactive)

Need growth inhibition, item `COc1ccc(N=c2cc(-c3ccccc3)oc3ccccc23)cc1`
-4% (inactive)

Need growth inhibition, item COc1ccc(C(C)c2cc3c(cc2OCC(C)=O)OCO3)cc1 (stereo unspecified)
-3% (inactive)

Need growth inhibition, item `O=C(Nn1c(-c2ccccc2)nc2ccccc2c1=O)c1ccc(CS)cc1`
53% (inactive)

###

Procedure details: NCI Yeast Anticancer Drug Screen. Data for the rad14 strain (AID 159);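 note: 0% = growth of vehicle-treated control cultures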
Measurement parameters: S. cerevisiae rad14 strain growth inhibition; at 33.0 µM; active compounds read high
This is part of a sample that, as a whole, favours compounds with a hit. Of some 79,000 tested, about 15% had one in any assay. Residues, ends and D or L forms follow the SMILES beside them. *: point of attachment. Fmoc = O=C(OCC1c2ccccc2-c2ccccc21)*; Boc = CC(C)(C)OC(=O)*
Label rule, in plain words: growth inhibition of 20% and up is 1.0, under 20% is 0.0.

Does the molecule CC(C)(C)OC(=O)NCCCCC(NC(=O)C(Cc1c[nH]c2ccccc12)NC(=O)OCC1c2ccccc2-c2ccccc21)C(=O)O (stereo not drawn) (Fmoc-Trp-Lys(Boc)-OH; configuration not given here) have recorded growth inhibition that is 20% or more?
1.0

Does the molecule `NC(N)=NS(=O)(=O)c1ccc(Nc2c3ccccc3nc3c(C(=O)NC(CO)(CO)CO)cccc23)cc1` have recorded growth inhibition that is 20% or more?
0.0

Does the molecule `COc1ccc2nc(CCc3ccccc3)ccc2c1` have recorded growth inhibition that is 20% or more?
0.0

Does the molecule CC(/C=C/c1ccc([N+](=O)[O-])o1)=N/N1CC(CN2CCOCC2)OC1=O (stereo not drawn) have recorded growth inhibition that is 20% or more?
1.0

Does the molecule `Cc1ccc(S(=O)(=O)NC(=O)C2C(=O)CC3(CCCCC3)CC2=O)cc1` have recorded growth inhibition that is 20% or more?
1.0

Does the molecule `Nc1ccc(/C=C/c2ccc3cccnc3c2)cc1` have recorded growth inhibition that is 20% or more?
0.0

Does the molecule COc1ccc(C(C)c2cc3c(cc2OCC(C)=O)OCO3)cc1 (stereo not drawn) have recorded growth inhibition that is 20% or more?
0.0

Does the molecule CC(=O)/C(=C\c1ccc(Cl)c(Cl)c1)C(=O)C(C)CN(C)C (stereo not drawn) have recorded growth inhibition that is 20% or more?
1.0

Does the molecule `c1c[nH]c(CN2CCN(Cc3ncc[nH]3)CC2)n1` have recorded growth inhibition that is 20% or more?
1.0

Does the molecule `CC(C)NCCCNc1c2ccccc2nc2cccc([N+](=O)[O-])c12` have recorded growth inhibition that is 20% or more?
1.0

Does the molecule CCC[CH2][Ge]([CH2]CCC)([CH2]CCC)[O]C(=O)C(O)c1ccccc1 (stereo not drawn) have recorded growth inhibition that is 20% or more?
1.0

Does the molecule `Cc1cc(C)c2[s+]snc2c1` have recorded growth inhibition that is 20% or more?
0.0

Does the molecule `CCCCCCCCCC(=O)N(CCC)CCC` have recorded growth inhibition that is 20% or more?
1.0

Does the molecule `ClCCCOc1c(Cl)cc(Cl)cc1Cl` have recorded growth inhibition that is 20% or more?
0.0

Does the molecule `CC(C)(Br)C(=O)/C=C/c1ccccc1` have recorded growth inhibition that is 20% or more?
1.0

Does the molecule `CCOC(=O)/C(=C/c1cccc(Cl)c1)N(CC)CC` have recorded growth inhibition that is 20% or more?
1.0
